For each of the compounds below, state its IC50.
# assayed-system: beta-catenin/TCF4 engagement (Homo sapiens, UniProt P35222)
# Construct: expressed in transfected cells; host or cells: HEK293
# Sequence (P35222 whole entry): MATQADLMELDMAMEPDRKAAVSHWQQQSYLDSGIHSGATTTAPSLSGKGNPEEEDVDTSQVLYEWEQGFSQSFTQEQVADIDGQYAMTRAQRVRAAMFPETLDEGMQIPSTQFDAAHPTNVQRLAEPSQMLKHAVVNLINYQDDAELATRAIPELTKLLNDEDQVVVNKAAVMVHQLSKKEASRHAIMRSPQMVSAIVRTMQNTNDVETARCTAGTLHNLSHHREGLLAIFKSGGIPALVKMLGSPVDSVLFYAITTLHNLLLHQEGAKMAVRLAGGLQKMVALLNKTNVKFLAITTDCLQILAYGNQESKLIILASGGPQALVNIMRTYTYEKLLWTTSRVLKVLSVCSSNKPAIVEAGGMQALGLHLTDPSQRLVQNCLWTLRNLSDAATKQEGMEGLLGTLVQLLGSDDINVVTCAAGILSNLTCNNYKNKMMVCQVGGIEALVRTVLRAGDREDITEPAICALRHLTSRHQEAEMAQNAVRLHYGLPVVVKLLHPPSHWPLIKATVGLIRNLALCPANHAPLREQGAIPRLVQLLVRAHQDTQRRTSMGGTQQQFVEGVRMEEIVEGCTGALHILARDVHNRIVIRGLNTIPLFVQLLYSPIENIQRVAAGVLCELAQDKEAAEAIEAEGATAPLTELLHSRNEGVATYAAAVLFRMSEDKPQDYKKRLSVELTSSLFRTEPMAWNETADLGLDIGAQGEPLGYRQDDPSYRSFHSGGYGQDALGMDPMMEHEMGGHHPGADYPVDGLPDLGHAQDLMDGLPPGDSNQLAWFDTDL
# assay-details: Nano-BRET target engagement assay (B-cat-Halo & TCF4-Luc in HEK293 cells)
# Format: cell-based
# run-parameters: absolute IC50; read-out: NanoBRET Abs IC50
Your answer should be a plain number; it is taken to be in µM.

Here CC(=O)N1CCC[C@]12CC=CCCCC1(CCCC=CCCCOC(=O)N3CC[C@@](C(=O)N[C@@H](Cc4ccsc4)C(=O)N[C@@H](Cc4csc5ccccc45)C(=O)N[C@@H](C)C(N)=O)(C3)NC(=O)[C@H](CC(C)C)NC(=O)[C@H](Cc3ccccc3)NC(=O)[C@H](C)NC(=O)[C@H](CCC(N)=O)NC(=O)[C@H](Cc3cc(C(=O)O)cc(C(F)(F)F)c3)NC(=O)[C@H](CC(=O)O)NC1=O)NC(=O)[C@H](CC(C)(C)C)NC(=O)[C@H](CC(=O)O)NC2=O (stereo partly drawn) was tested on beta-catenin/TCF4 engagement (Homo sapiens, UniProt P35222), and its IC50 came to 12.9

Here CC(=O)N1CCC[C@]12CC=CCCCC1(CCCC=CCCCCCC[C@@](C)(C(=O)N[C@@H](Cc3ccccc3)C(=O)N[C@@H](Cc3csc4ccccc34)C(=O)N[C@@H](CCC(N)=O)C(N)=O)NC(=O)[C@H](CCO)NC(=O)[C@H](Cc3ccccc3)NC(=O)[C@H](C)NC(=O)[C@H](C)NC(=O)[C@H](CCC(=O)O)NC(=O)[C@H](CC(=O)O)NC1=O)NC(=O)[C@H](CCC(C)C)NC(=O)[C@H](CC(=O)O)NC2=O (stereo partly drawn) [I-1537] was tested on beta-catenin/TCF4 engagement (Homo sapiens, UniProt P35222), and its IC50 came to 13.9

Value source: patent US20240116985A1
